B1: Caulobacter ParB omega fusion; a variant is named by its letters at X, in order, B8GW30 (parent)
chain: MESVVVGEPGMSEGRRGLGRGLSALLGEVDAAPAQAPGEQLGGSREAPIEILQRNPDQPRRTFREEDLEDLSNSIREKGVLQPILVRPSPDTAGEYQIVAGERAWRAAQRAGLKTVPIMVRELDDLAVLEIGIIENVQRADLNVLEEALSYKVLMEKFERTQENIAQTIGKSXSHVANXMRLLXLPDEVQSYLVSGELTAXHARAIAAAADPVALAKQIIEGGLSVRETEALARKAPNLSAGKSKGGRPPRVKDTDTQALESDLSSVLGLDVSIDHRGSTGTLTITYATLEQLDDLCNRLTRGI

variants of: B1; experiment: one-hybrid fitness for binding parS DNA (scaled: cognate 1, non-cognate 0); higher = stronger binding; details: with parS DNA site
Whole data set: some 81,000 sequences, median “one-hybrid fitness for binding parS DNA” near -0.17, cut for the highest 2% near 0.51. For the sample, the highest values were picked, then their nearest neighbours and some sequences at random.
observed-property: one-hybrid fitness for binding parS DNA

Would you please look over these solved cases?
{"mutant": "RMDL", "one-hybrid fitness for binding parS DNA": "≤ 0.2"}
{"mutant": "TERS", "one-hybrid fitness for binding parS DNA": "≤ 0.2"}
{"mutant": "CLAE", "one-hybrid fitness for binding parS DNA": "≤ 0.2"}

Please state, for each entry, its recorded one-hybrid fitness for binding parS DNA.
1. RPVC
2. RNHK
3. RNYR
4. AECV
5. GKMI
6. RIRH

Result block:
1: ≤ 0.2; 2: ≤ 0.2; 3: ≤ 0.2; 4: ≤ 0.2; 5: ≤ 0.2; 6: 0.29

Please state, for each entry, its recorded one-hybrid fitness for binding parS DNA.
1. QPQI
2. RSVD
3. RKSE
4. RMDT

Result block:
≤ 0.2
≤ 0.2
≤ 0.2
0.794
